# Protocol: chemical genetic growth profiling, strain panel (AID 1159580);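 further: tested at 20 µM; growth read once vehicle control cultures reached saturation at 30 °C; 1 = growth at the plate median or of vehicle wells; lower values mean less growth of the strain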
# Recorded conditions: S. cerevisiae deletion strains, growth OD, locus YDR162C, strain NBP2, active compounds read low
About 2,000 (36%) of roughly 5,500 compounds were called active. Not shown: some 18% with an inconclusive outcome. This is one part of the list.

Molecule | normalized growth
O=C(O)c1nc2cc(Cl)c(Cl)cc2[nH]c1=O | 1.03
CC(=O)O[C@H]1C[C@@H](O)C(C)(C)C2C[C@@H](OC(C)=O)[C@]3(C)C(CC[C@@]4(C)[C@H](c5ccoc5)OC(=O)C5OC543)[C@]21C (some centres undefined) | 0.977
CC(=O)O[C@@H]1CC2C(C)(C)[C@H](O)C[C@H](O)[C@]2(C)C2CC[C@@]3(C)[C@H](c4ccoc4)OC(=O)[C@H]4O[C@]43[C@@]21C (some centres undefined) | 0.993
NCC(=O)CCC(=O)O | 1.01
